assay: Therapeutic index, ratio of CC50 for human HeLa cells to IC50 for Plasmodium falciparum FCR-3; assay type: cell-based; conditions: HeLa cells versus Plasmodium falciparum FCR-3, read-out: Ratio CC50/IC50
metric.name: selectivity ratio
Answers are plain numbers.

Worked examples follow.
CNC(=O)/C=C/[C@H](Cc1ccccc1)NC(=O)[C@@H](CCCNC(=O)OCc1ccccc1)NC(=O)OC(C)(C)C : 157
CNC(=O)/C=C/C=C/[C@H](Cc1ccccc1)NC(=O)[C@@H](CCCNC(=O)OCc1ccccc1)NC(=O)OC(C)(C)C : 11.9
CNC(=O)/C=C/[C@H](Cc1ccccc1)NC(=O)[C@@H](CCCNC(=O)OCc1ccccc1)NCc1cccc(C)c1 : 48.3

// next entry
Problem: Item `CNC(=O)/C=C/[C@H](Cc1ccccc1)NC(=O)[C@@H](CCCNC(=O)OCc1ccccc1)NCc1cc(OC)cc(OC)c1` has what recorded selectivity ratio?
Solution: 15.8

###

assay: Cytotoxicity against human HeLa cells assessed as growth inhibition after 48 hrs by MTS assay; format: cell-based
For each record, check the reported CC50 at 48 h: if it is below 300 µM write Condition met, else write Condition not met.

Some solved cases for reference:
CNC(=O)/C=C/[C@H](Cc1ccccc1)NC(=O)[C@@H](CCCNC(=O)OCc1ccccc1)NCc1cccc(C)c1 : Condition met
CNC(=O)/C=C/[C@H](Cc1ccccc1)NC(=O)[C@@H](CCCNC(=O)OCc1ccccc1)NC(=O)OC(C)(C)C : Condition not met
CCNC(=O)/C=C/[C@H](Cc1ccccc1)NC(=O)[C@@H](CCCNC(=O)OCc1ccccc1)NC(=O)OC(C)(C)C : Condition not met
CC(C)(C)OC(=O)N[C@H](CCCNC(=O)OCc1ccccc1)C(=O)N[C@H](/C=C/C=C/C(=O)N1CCCC1)Cc1ccccc1 : Condition met
CNC(=O)/C=C/[C@H](Cc1ccccc1)NC(=O)[C@@H](CCCNC(=O)OCc1ccccc1)NCc1ccc(OC)cc1 : Condition not met

Okay, now this compound:
Problem: CC50 at 48 h under 300 µM? Item: `CNC(=O)/C=C/[C@H](Cc1ccccc1)NC(=O)[C@@H](CCCNC(=O)OCc1ccccc1)NC(C)C`
Solution: Condition not met

###

test: Therapeutic index, ratio of CC50 for human HeLa cells to IC50 for Plasmodium falciparum FCR-3; assay type: cell-based; conditions: HeLa cells versus Plasmodium falciparum FCR-3, read-out: Ratio CC50/IC50
Where a SMILES comes first, the peptide text is derived from it. [ ]: non-standard residue; d: D form. Nle = CCCC[C@H](N)C(=O)O
Task for the reader: assign each of the following compounds its reported selectivity ratio.
Answers are plain numbers.

Consider the reported selectivity ratio for these compounds:
CC(C)NC(=O)/C=C/[C@H](Cc1ccccc1)NC(=O)[C@@H](CCCNC(=O)OCc1ccccc1)NC(=O)OC(C)(C)C : 33.8
CNC(=O)/C=C/[C@H](Cc1ccccc1)NC(=O)[C@@H](CCCNC(=O)OCc1ccccc1)NCc1ccc(OC)cc1 : 27.6
CNC(=O)/C=C/[C@H](Cc1ccccc1)NC(=O)[C@@H](CCCNC(=O)OCc1ccccc1)NC(C)C : 10.8
CCCC[C@@H](C=O)NC(=O)[C@H](CC(C)C)NC(=O)[C@H](CC(C)C)NC(C)=O (Ac-Leu-Leu-[Nle]-aldehyde) : 39.2
CNC(=O)/C=C/[C@H](Cc1ccccc1)NC(=O)[C@@H](CCCNC(=O)OCc1ccccc1)NCc1ccccc1 : 16.5
CC(C)(C)OC(=O)N[C@H](CCCNC(=O)OCc1ccccc1)C(=O)N[C@H](/C=C/C=C/C(=O)N1CCCCC1)Cc1ccccc1 : 11.2

Continue with the next compound.
Problem: May I ask what selectivity ratio has been recorded for `CC(C)(C)OC(=O)N[C@H](CCCNC(=O)OCc1ccccc1)C(=O)N[C@H](/C=C/C(=O)N1CCCC1)Cc1ccccc1` ?
Solution: 13.4

###

experiment: Cytotoxicity against human HeLa cells assessed as growth inhibition after 48 hrs by MTS assay; format: cell-based
Where a SMILES comes first, the peptide text is derived from it. [ ]: non-standard residue; d: D form. Nle = CCCC[C@H](N)C(=O)O
metric.name: log10(CC50 at 48 h) (log10 of the value in µM)
Please note: log10 values; quantity CC50 at 48 h; unit µM.

Each compound below has a reported value. Please supply its log10(CC50 at 48 h).
1. CCCC[C@@H](C=O)NC(=O)[C@H](CC(C)C)NC(=O)[C@H](CC(C)C)NC(C)=O (Ac-Leu-Leu-[Nle]-aldehyde)
2. CN(C)C(=O)/C=C/C=C/[C@H](Cc1ccccc1)NC(=O)[C@@H](CCCNC(=O)OCc1ccccc1)NC(=O)OC(C)(C)C
3. CNC(=O)/C=C/[C@H](Cc1ccccc1)NC(=O)[C@@H](CCCNC(=O)OCc1ccccc1)NCc1ccccc1

Solution:
[1.40, 2.07, 2.40]

###

assay: Cytotoxicity against human HeLa cells assessed as growth inhibition after 48 hrs by MTS assay; type: cell-based
Give CC50 at 48 h for every item shown.
Give bare numbers, in µM.

CC(C)(C)OC(=O)N[C@H](CCCNC(=O)OCc1ccccc1)C(=O)N[C@H](/C=C/C=C/C(=O)N1CCCCC1)Cc1ccccc1 : 175

Quick batch: CC50 at 48 h for everything below.
1. CC(C)NC(=O)/C=C/[C@H](Cc1ccccc1)NC(=O)[C@@H](CCCNC(=O)OCc1ccccc1)NC(=O)OC(C)(C)C
2. CNC(=O)/C=C/[C@H](Cc1ccccc1)NC(=O)[C@@H](CCCNC(=O)OCc1ccccc1)NCc1cc(OC)cc(OC)c1
3. CNC(=O)/C=C/C=C/[C@H](Cc1ccccc1)NC(=O)[C@@H](CCCNC(=O)OCc1ccccc1)NC(=O)OC(C)(C)C
4. CC(C)(C)OC(=O)N[C@H](CCCNC(=O)OCc1ccccc1)C(=O)N[C@H](/C=C/C(=O)N1CCCC1)Cc1ccccc1

Solution:
1: 314; 2: 259; 3: 281; 4: 153
